Target: human GPR40 receptor (Homo sapiens, UniProt O14842)
Sequence (O14842 whole entry): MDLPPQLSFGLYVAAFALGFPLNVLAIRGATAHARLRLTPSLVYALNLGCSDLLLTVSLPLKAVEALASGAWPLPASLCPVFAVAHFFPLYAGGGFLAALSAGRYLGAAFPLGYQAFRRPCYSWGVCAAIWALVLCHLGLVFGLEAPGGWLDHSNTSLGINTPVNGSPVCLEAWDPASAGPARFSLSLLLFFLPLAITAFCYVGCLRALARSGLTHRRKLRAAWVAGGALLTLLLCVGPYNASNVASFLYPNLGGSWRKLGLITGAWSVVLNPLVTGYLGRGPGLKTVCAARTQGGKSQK
Experiment: IP1 accumulation measurements using the IPOne assay system in 1321N1 cells stably expressing human GPR40 receptor
Settings: 1321N1 cells expressing human GPR40, 1 hour stimulation at 37° C., Table 2
Please provide measured EC50 for the entries that follow.
Give bare numbers, in nM.

MOL	EC50 (nM)
Cn1nnc(-c2ccc(Oc3ccc(F)c4c3CC[C@H]4Oc3ccc([C@H]4C[C@@H]4C(=O)O)cc3)cc2)n1	3
CC(C)(O)CCOc1ccc(Oc2ccc(F)c3c2CC[C@H]3Oc2ccc([C@H]3C[C@@H]3C(=O)O)cc2)cc1	5
N#Cc1ccc(Oc2ccc(F)c3c2CC[C@H]3Oc2ccc([C@H]3C[C@@H]3C(=O)O)cc2)c(F)c1	19

Switching to the query record.
Tell me reported EC50 for O=C(O)[C@H]1C[C@@H]1c1ccc(O[C@@H]2CCc3c(Oc4ccc(O)cc4)ccc(F)c32)cc1 , tested with human GPR40 receptor (Homo sapiens, UniProt O14842).
6
